Target Entity: SF9 affinity purified rat farnesyl protein transferase (Rattus norvegicus, UniProt Q02293+Q04631)
Construct: made in house; host or cells: Sf9 insect cells (baculovirus system inferred from b7)
Sequence (Q02293 whole entry, one chain of several): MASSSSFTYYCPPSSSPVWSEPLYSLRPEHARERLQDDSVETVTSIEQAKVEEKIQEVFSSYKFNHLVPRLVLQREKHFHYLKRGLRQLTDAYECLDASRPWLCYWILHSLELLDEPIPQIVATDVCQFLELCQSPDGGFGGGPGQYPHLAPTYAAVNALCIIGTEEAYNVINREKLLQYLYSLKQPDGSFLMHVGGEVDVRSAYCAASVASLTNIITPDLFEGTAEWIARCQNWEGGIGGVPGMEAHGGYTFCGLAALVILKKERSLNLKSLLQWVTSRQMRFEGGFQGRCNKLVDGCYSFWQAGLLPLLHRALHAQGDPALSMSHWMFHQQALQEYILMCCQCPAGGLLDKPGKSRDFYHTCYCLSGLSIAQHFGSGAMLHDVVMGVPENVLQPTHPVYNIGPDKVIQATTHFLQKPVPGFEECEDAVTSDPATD
Measurement Description: PFT inhibitory activity (radiolabeled farnesyl pyrophosphate, streptavidin bead assay)
Format: biochemical
Test Settings: HEPES buffer pH 7.4, without 5 mM potassium phosphate; read-out: IC50 (μM) Hepes
Outcome Measure: IC50

[Q] For the molecule shown here, `O=C(CN(Cc1ccc(OCc2ccccc2)cc1)C(=O)[C@H](Cc1c[nH]cn1)NC(=O)OCc1ccccc1)NCCc1ccccn1` , give the reported IC50.
[A] 7.8 µM

[Q] For the molecule shown here, `CC(C)(CNC(=O)CN(Cc1ccc(F)cc1)C(=O)[C@H](Cc1c[nH]cn1)NC(=O)OCc1ccccc1)c1ccccc1` , give the reported IC50.
[A] 1.2 µM

[Q] For the molecule shown here, `CC(C)(CNC(=O)CN(Cc1ccccc1)C(=O)[C@H](Cc1c[nH]cn1)NC(=O)OCc1ccccc1)c1ccccc1` , give the reported IC50.
[A] 0.6 µM
